src = the METLIN SMRT retention time set (Domingo-Almenara et al. 2019)

# EXPERIMENT_DESCRIPTION: gradient 5% acetonitrile 3 min, to 50% in 2 min, to 85% in 15 min, held 3 min, 100 µL/min
# CONDITION: column: Zorbax Extend-C18 2.1 x 50 mm; eluents: water / acetonitrile, 0.1% formic acid
ENDPOINT_NAME: RP-LC retention time (s)
Value expressed in s; do not type the unit.

# COMPOUND, ENDPOINT_NAME, UNIT_TEXT, MEASURED_VALUE
rows = [
    ("CCOc1ccc2nc(NC(=O)C3CCN(S(=O)(=O)c4cn(CC)cn4)CC3)sc2c1", "RP-LC retention time", "s", 809),
    ("Cc1ccc(CN2CCc3nc(N4CCN(c5ccccc5F)CC4)ncc3C2)s1", "RP-LC retention time", "s", 799),
    ("Cc1ccn2cc(C(=O)NCc3ccc(F)cc3F)nc2c1", "RP-LC retention time", "s", 655),
    ("COc1cccc(NC(=O)Nc2nccn(-c3ccc(Br)cc3)c2=O)c1", "RP-LC retention time", "s", 983),
    ("CCCCS(=O)(=O)NC1CCCC(OC(=O)Nc2ccc(F)cc2)C1 (stereo not drawn)", "RP-LC retention time", "s", 883),
    ("CCCc1noc(-c2ccc(-n3ncc(C(=O)N4CCSCC4)c3C)nc2)n1", "RP-LC retention time", "s", 967),
    ("Cc1cc(C)cc(NC(=O)Cn2cc(-c3noc(-c4ccncc4)n3)nc2C)c1", "RP-LC retention time", "s", 735),
    ("COCCn1cc(CCNC(=O)Nc2cccc(F)c2C)c2cccnc21", "RP-LC retention time", "s", 774),
]

Consider the compound shown here: O=C(c1cccc(OCC2CCCN(C(=O)C3CCCO3)C2)c1)N1CCCCC1 (stereo not drawn) What is its recorded RP-LC retention time? 750

Name the recorded RP-LC retention time for `CCN1C(=O)COc2ccc(-c3noc(-c4ccccc4F)n3)cc21` . 1070

Bench note: what RP-LC retention time did COc1cccc(CNC(=O)C2CCCN(c3cnc4nccnc4c3)C2)c1OC (stereo not drawn) show? 675

Record request: RP-LC retention time value, item `Cn1c(=O)n(C)c2cc(N3CCOCC3)c(NC(=O)COc3ccc(Cl)cc3)cc21` 899

Look up RP-LC retention time: CCN(Cc1ccccc1)c1ccc(-c2noc(CN3CCCC(C)C3)n2)cn1 (stereo not drawn) 792
